Biological target: Dansyl-labeled CaM (UniProt P0DP23 1-149, Dansyl label (site not stated))
Experiment: other fluorescence titration
Where no end group is shown, it is not given here. MBP = maltose binding protein fusion

BINDER: MBP-fused human Nox5β dehydrogenase domain residues 528-719 (domain or fragment) PTRRIFASEHAVLIGAGIGITPFASILQSIMYRHQKRKHTCPSCQHSWIEGVQDNMKLHKVDFIWINRDQRSFEWFVSLLTKLEMDQAEEAQYGRFLELHMYMTSALGKNDMKAIGLQMALDLLANKEKKDSITGLQTRTQPGRPDWSKVFQKVAAEKKGKVQVFFCGSPALAKVLKGHCEKFGFRFFQENF
Ka / M⁻¹: 1.39e+06
--
BINDER: MBP-fused human Nox5β dehydrogenase domain residues 605-719 (domain or fragment) SLLTKLEMDQAEEAQYGRFLELHMYMTSALGKNDMKAIGLQMALDLLANKEKKDSITGLQTRTQPGRPDWSKVFQKVAAEKKGKVQVFFCGSPALAKVLKGHCEKFGFRFFQENF
Ka / M⁻¹: 2.52e+06
--
BINDER: MBP-fused human Nox5β dehydrogenase domain residues 665-719 (domain or fragment, cysteine pairing not given here) {MBP}-TRTQPGRPDWSKVFQKVAAEKKGKVQVFFCGSPALAKVLKGHCEKFGFRFFQENF
Ka / M⁻¹: 4.9e+06
--
BINDER: MBP-fused human Nox5β dehydrogenase domain residues 584-719 (domain or fragment, UniProt Q96PH1-4 584-719, looked up) KLHKVDFIWINRDQRSFEWFVSLLTKLEMDQAEEAQYGRFLELHMYMTSALGKNDMKAIGLQMALDLLANKEKKDSITGLQTRTQPGRPDWSKVFQKVAAEKKGKVQVFFCGSPALAKVLKGHCEKFGFRFFQENF
Ka / M⁻¹: 1.82e+06
